# self-cleavage kobs at 2500 uM GlcN6P values compiled below
B1: glmS ribozyme (parent)
chain: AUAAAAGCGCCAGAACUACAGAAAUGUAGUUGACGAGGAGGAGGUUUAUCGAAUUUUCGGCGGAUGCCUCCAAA

Variants of: B1
Method notes: self-cleavage kobs at 2500 uM GlcN6P; higher = faster cleavage; RNA array
Run parameters: with glucosamine-6-phosphate
This sample holds only a part of the variants without activity.
Metric name: self-cleavage kobs at 2500 uM GlcN6P (s⁻¹)

Seq	Sign	Recorded value
AUAAAAGCGCCAGAACUACAGAAAUGUAGUUGACGAGGAGGAGGAUUAUCGAAUUUUCGGCGGAUGCCUUCAAA [U45A C70U]	=	0.0203
AUAAAAGCGCCAGACCUACAGAAAUGUAGUUGACGAGGAGGAGGUUUAUCGAAUUUUCGGCAGAUGCCUCCAAA [A15C G62A]	<	1e-05
AUAAAAGCGCCAGAACUACAGAAAUGUAGUUGACGAGGAGGAGUUUUUUCGAAUUUUCGGCGGGUGGCUCCAAA [G44U A48U A64G C67G]	=	0.000485
AUAAAAGCGCCAGAAUUACAGAAAUGUAGUUGACGAGGAGGAGGUUUAUCGAUGUUUAGGCGGAUGCCUCCAAA [C16U A53U U54G C58A]	=	3.59e-05
AUAAAAGCGCCAGAGCUACAGAAAUGUAGUUGACGACGAGGAGGUUUAUCGAAUUUGCGGCGGAUGUCUCCAAA [A15G G37C U57G C67U]	<	1e-05
AUAAAAGGGCCAGAAAUACAGAAAUGUAGUUGACGAGGAGGAUUUUUAUCGAAUUUUCGGCAGAUGCCUCCAAA [C8G C16A G43U G44U G62A]	<	1e-05
AUAAAAGCGUCAGAACUACAGAAAUGUAGUUGACGAGGUGGAGGUUUAUCGUAUUUUGGGCGGAUGCCUCUAAA [C10U A39U A52U C58G C71U]	<	1e-05
AUAAAAGUGCGACAACUACAGAAAUGUAGUUGACGAGGAGGAGGUUUAUCGAAUUUUCGGCGGAUGCCUCCAAA [C8U C11G G13C]	<	1e-05
AUAAAAGCGCCCGAACUACAGAAAUGUAGUUGACGAGGAGGAGGUUUAUCGAAUUUUCGGCGGAUGAAUCCAAA [A12C C67A C68A]	=	4.41e-05
AUAAAAGUGCCAGAACUACAGAAAUGUAGUUGGCGAGGAGGAGGUUUAUCGAAUUUUCGGCGGUUGCCUCCAAA [C8U A33G A64U]	<	1e-05
AUAAAGGCGCCAGAACUACAGAAAUGUAGUUGACGAGGAGGAGGUUUAUCGAAAUUUCGGCGGAUGCCUCCAAA [A6G U54A]	=	0.000387
AUAAAAGCGUCAGAACUACAGAAAUGUAGUUGACGAGGAUGAGGUUUAUCGAAUUUUCGGCGGAUUUCUCCAAA [C10U G40U G66U C67U]	<	1e-05
AUAAAAGCGCCAGAACUACAGAAAUGUGGGUGACGAGGAGGAGGUUUAUCGAAUUUUCGGCGGAUGUCUCUAAA [A28G U30G C67U C71U]	=	0.000204
AUAAAAGCGCCAUAACUACAGAAAUGUAGUUGACGAGGAGGUGGUUUAUUGAAUUUUCGGCGGAUGCCUCCAAA [G13U A42U C50U]	<	1e-05
AUAAAAGCGCCUGAACUACAGAAAUGUAGUUGACGAGGAGGAGGUUAAUCGAAUUUUCGGCGGAUGCCUCCAAA [A12U U47A]	=	0.0403
AUAAAAGCGCCGGAACUACAGAAAUGUAGUUGACGAGGAGGAGGUUUAUCGAAUUUUCGGCGGAAGCCUCCAAA [A12G U65A]	=	7.94e-05
AUAAAAGCGACAGAACUACAGAAAUGUAGUUGACAAGGACGAGGUUUAUCGAAUUUUCGGCGGAUGCCUCCAAA [C10A G35A G40C]	<	1e-05
AUAAAAGCGCCAGAACUACAGAAAUGUAGUUGACGAGGAGCAGUUUUAUCGAAUUUUCGGCGGAUUCCUCCAAA [G41C G44U G66U]	<	1e-05
AUAAAAGCGCUAGAACUACAGAAAUGUAGUUGACGAGGAGGAGGUUAAUCGAGUUAUCGGCGGAUGCCUGCAAA [C11U U47A A53G U56A C70G]	=	0.000104
AUAAAAGCUCCAGAACUACAGAAAUGUAUUUGACGAGGAGGAGAUUUAUCGAAUUUUCGGCGGAUGCCUCCAAA [G9U G29U G44A]	<	1e-05
AUAAAAGGGCCAGAACUACAGAAAUGUAGUUGACGAGGAGGUGGUUUACCGGAUUUUCGGCGGAUGCCUCCAAA [C8G A42U U49C A52G]	<	1e-05
AUAAAAGCGCCUGAACUACAGAAAUGUAGUUGACGAGGAGGAGGUUUAUCGAAUUGUCGGCGGAUCCCUCCAAA [A12U U56G G66C]	=	0.000708
AUAAAAGCGCCAGACCUACAGAAAUGUAGUUGACGAGGAGGAGGCUUAUGGAAUUUUCGGCGGAUGCUUCCAAA [A15C U45C C50G C68U]	<	1e-05
AUAAAAGCGCCAGAACUACAGAAAUGUAGUUGCCGGGGAGGAGGUUUAUCGAAUUUUCGGCUGAUACCUCCAAA [A33C A36G G62U G66A]	<	1e-05
AUAAAAGCGUCAGAACUACAGAAAUGUAGUUUACGAGGAGGAGGUUUAUCGAAUUUUCGGCGGAUGCCUCCAAA [C10U G32U]	=	5.05e-05
AUAAAAGCGCCAGAACUACAGAAAUGUAGUUGGCGAGGAGGAGGUUUAUCGAAUUUUCGGCGGAGGCCUCCAAA [A33G U65G]	<	1e-05
AUAAAAGCGCCAGAACUACAGAAAUGUAGUUGACGAGGAGGAGGUUUAUCGAUUUUUAGGCGGAUGCUUCCAAA [A53U C58A C68U]	=	6.03e-05
AUAAACGCGCCGGAACUACAGAAAUGUAGUUGACGAGGAGGAGGUUUAUCGAUUUUUCGGCGGAUGCCUCCAAA [A6C A12G A53U]	<	1e-05
AUAAAAGCGCCAGAACUACAGAAAUGUAGUUGACGACGAGGAGGAUUAUCGAAUUUUCGGCGGAUGCCUCCAAA [G37C U45A]	=	4.81e-05
AUAAAAGCGCCAGAACUACAGAAAUGUAAUUGACGAGGAGGAGGUUUAUCGAAUUUUCGGCGGAAGCCUCAAAA [G29A U65A C71A]	=	4.59e-05
AUAAAAGCGCCAGAACUACAGAAAUGUAGUUGACGAGGAGGAGGUUUAUCGCAUUCUCGGCGGAUGCCUCCAAA [A52C U56C]	<	1e-05
AUAAAAGCGCCAGAACUACAGAAAUGUAGUUGACGCGGAGGAGUUUUAUCGAAUUUUCGGCGGAUGUCUCCAAA [A36C G44U C67U]	<	1e-05
AUAAAAGCGCCAGAACUACAGAAAUGUAGUUGACGAGGAGGAGUUUUAUGGAAUUGUCGGCGGAUGCCUCCAAA [G44U C50G U56G]	<	1e-05
AUAAAAGCGCCCGAUUUACAGAAAUGUAGUUGACGAGGAGGAGGUUUAUCGAAUUUUCGGCGGAUGCCUUCAAA [A12C A15U C16U C70U]	=	0.000148
AUAAAAGCGCCAGAACUACAGAAAUGUAGUUGACGAGGAGGAGGCUUAUCGAAUUUUCGCCGGAUGCCUCCAAA [U45C G60C]	<	1e-05
AUAAAAGCGUCAGAACUACAGAAAUGUAGUUGACGAGGAGGAGGUUUAUCGCAUUUUGGGCGGAUGCCUCCAAA [C10U A52C C58G]	<	1e-05
AUAAAAGCGCCAGAACUACAGAAAUGUAGUUGACGAGGAGGAGGUUAAUCGAAUUUUCGGCGGAUGCCUUCAAA [U47A C70U]	=	0.00221
AUAAAAGCGCCAGAAUUACAGAAAUGUAGUUGACGAGGAGGAGCUUUAUCGAAUUUUCGGCGGAUGCCUCCAAA [C16U G44C]	=	2.88e-05
AUAAAAGCGCCAGAACUACAGAAAUGUAGUUGACGAGGAGGAGGUUUGUCGAAUUUUCGGCGGAUGGCUCCAAA [A48G C67G]	=	7.99e-05
AUAAAAGCGCCAGAACUACAGAAAUGUAGUUGACGAGGAGGAGGAUUAUCGAAUUUCCGGCGGAUGCCUCCAAA [U45A U57C]	=	0.000268
AUAAAAGCGCCAGAACUACAGAAAUGUAGUUGACGAGGAGGAGGUUUAUCGAAUUCUCGGCGGAUGCCUCAAAA [U56C C71A]	=	5.14e-05
AUAAAAGCGCCAUAACUACAGAAAUGUAGUUAACGAGGAGGAGGUUUAUUGAAUUUUCGGCGGAUGCCUCCAAA [G13U G32A C50U]	<	1e-05
AUAAAAGCGCUAAAACUACAGAAAUGUAGUUGACGAGGAGGAGGUUUAUCGAAUUUUCGGCGGAUGCCUCCAAA [C11U G13A]	=	3.03e-05
AUAAAUGCGCCAGAACUACAGAAAUGUAGUUGACGAGGAGGAUGUUUAUCGAAUUUACGGCGGAUGCCUCCAAA [A6U G43U U57A]	<	1e-05
AUAAAAGCGCCCGAACUACAGAAAUGUAAUUGACGAAGAGGAGGUUUAUCGAAUUUUCGGCGGAUGCCUCCAAA [A12C G29A G37A]	=	0.000142
AUAAAAGCGCCAGAACUACAGAAAUGUAGUUGACGAGGAGGAGGUUUAUCGAAUUUUCGGCGCAUUCCUCAAAA [G63C G66U C71A]	<	1e-05
